Listed below: % Enzyme Activity (relative to DMSO controls), Data 1 values for each entry.
# tested.system: DAPK1 (Homo sapiens)
# Construct: purchased ReactionBiology
# Sequence (P53355 whole entry): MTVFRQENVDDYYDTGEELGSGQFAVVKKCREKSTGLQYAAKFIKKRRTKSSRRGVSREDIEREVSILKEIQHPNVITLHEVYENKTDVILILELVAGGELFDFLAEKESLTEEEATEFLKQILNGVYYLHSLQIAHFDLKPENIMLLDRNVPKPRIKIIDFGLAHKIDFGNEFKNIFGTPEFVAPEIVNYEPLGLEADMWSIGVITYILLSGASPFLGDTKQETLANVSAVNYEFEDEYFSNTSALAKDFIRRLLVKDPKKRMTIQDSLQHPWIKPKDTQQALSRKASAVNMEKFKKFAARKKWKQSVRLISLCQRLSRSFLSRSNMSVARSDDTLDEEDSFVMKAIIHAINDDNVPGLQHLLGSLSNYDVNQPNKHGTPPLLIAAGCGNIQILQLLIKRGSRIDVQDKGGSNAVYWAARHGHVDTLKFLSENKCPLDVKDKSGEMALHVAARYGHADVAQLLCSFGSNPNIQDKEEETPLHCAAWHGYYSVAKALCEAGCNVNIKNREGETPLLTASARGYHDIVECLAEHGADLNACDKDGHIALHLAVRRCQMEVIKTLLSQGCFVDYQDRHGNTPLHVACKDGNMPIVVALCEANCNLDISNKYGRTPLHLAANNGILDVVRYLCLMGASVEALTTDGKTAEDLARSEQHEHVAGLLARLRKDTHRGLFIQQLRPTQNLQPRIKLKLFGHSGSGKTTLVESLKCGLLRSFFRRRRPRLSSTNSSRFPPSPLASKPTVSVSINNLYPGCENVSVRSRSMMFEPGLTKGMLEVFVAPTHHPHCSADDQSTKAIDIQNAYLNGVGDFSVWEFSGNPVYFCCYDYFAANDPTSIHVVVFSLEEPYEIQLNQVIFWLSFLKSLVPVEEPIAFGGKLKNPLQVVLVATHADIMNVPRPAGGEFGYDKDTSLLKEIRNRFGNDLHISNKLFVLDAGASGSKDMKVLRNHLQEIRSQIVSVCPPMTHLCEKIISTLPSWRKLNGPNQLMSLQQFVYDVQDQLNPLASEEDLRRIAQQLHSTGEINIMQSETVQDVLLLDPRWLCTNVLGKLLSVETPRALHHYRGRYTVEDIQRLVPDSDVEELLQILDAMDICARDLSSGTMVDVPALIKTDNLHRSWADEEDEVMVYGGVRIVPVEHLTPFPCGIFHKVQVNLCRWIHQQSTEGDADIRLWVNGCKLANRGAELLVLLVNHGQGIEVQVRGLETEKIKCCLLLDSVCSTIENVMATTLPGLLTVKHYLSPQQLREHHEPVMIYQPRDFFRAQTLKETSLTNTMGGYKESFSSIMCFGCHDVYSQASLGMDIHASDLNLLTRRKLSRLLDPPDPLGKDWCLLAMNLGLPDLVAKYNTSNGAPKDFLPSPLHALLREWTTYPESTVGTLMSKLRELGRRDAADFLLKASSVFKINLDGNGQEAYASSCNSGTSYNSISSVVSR
# experiment.notes: Kinase activity test (ReactionBiology), % enzyme activity relative to DMSO
# Format: biochemical
# condition.parameters: DAPK1; 10 uM; replicate Data 1
quantity: % Enzyme Activity (relative to DMSO controls), Data 1 (%)

- compound: "CS(=O)(=O)c1ccc(C2=C(c3ccccc3)C(=O)OC2)cc1"
  tested.system: "DAPK1 (Homo sapiens)"
  reported.result: 92.47
- compound: "C=C[C@H]1CN2CC[C@H]1C[C@@H]2[C@@H](O)c1ccnc2ccc(OC)cc12"
  tested.system: "DAPK1 (Homo sapiens)"
  reported.result: 95.41
- compound: "C[C@]12CCC(=O)C=C1CC[C@@H]1[C@@H]2[C@@H](O)C[C@@]2(C)[C@H]1CC[C@]2(O)C(=O)CO [Hydrocortisone]"
  tested.system: "DAPK1 (Homo sapiens)"
  reported.result: 110.58
- compound: "CC(=O)Nc1ccc(O)cc1"
  tested.system: "DAPK1 (Homo sapiens)"
  reported.result: 98.16
- compound: "C[C@@H]1O[C@@H]1P(=O)(O)O"
  tested.system: "DAPK1 (Homo sapiens)"
  reported.result: 95
- compound: "CC(C)CN(C[C@@H](O)[C@H](Cc1ccccc1)NC(=O)O[C@H]1CO[C@H]2OCC[C@H]21)S(=O)(=O)c1ccc(N)cc1"
  tested.system: "DAPK1 (Homo sapiens)"
  reported.result: 82.12
- compound: "OC(Cn1cncn1)(Cn1cncn1)c1ccc(F)cc1F"
  tested.system: "DAPK1 (Homo sapiens)"
  reported.result: 97.86
- compound: "Cn1c(=O)c2[nH]cnc2n(C)c1=O"
  tested.system: "DAPK1 (Homo sapiens)"
  reported.result: 100.03
- compound: "NC[C@H](O)c1ccc(O)c(O)c1 [Norepinephrine]"
  tested.system: "DAPK1 (Homo sapiens)"
  reported.result: 93.2
- compound: "O=C1C(O)=C([C@H]2CC[C@H](c3ccc(Cl)cc3)CC2)C(=O)c2ccccc21"
  tested.system: "DAPK1 (Homo sapiens)"
  reported.result: 90.59
- compound: "CC(C)C[C@H](NC(=O)[C@H](Cc1ccccc1)NC(=O)c1cnccn1)B(O)O"
  tested.system: "DAPK1 (Homo sapiens)"
  reported.result: 94.13
- compound: "COC(=O)N[C@H](C(=O)N[C@@H](Cc1ccccc1)[C@@H](O)CN(Cc1ccc(-c2ccccn2)cc1)NC(=O)[C@@H](NC(=O)OC)C(C)(C)C)C(C)(C)C"
  tested.system: "DAPK1 (Homo sapiens)"
  reported.result: 73.05
- compound: "Cc1ccnc2c1NC(=O)c1cccnc1N2C1CC1"
  tested.system: "DAPK1 (Homo sapiens)"
  reported.result: 95.47
- compound: "N[C@H]1C(O)O[C@H](CO)[C@@H](O)[C@@H]1O (stereo partly shown)"
  tested.system: "DAPK1 (Homo sapiens)"
  reported.result: 142.72
- compound: "Cc1ccc(Cl)c(Nc2ccccc2C(=O)O)c1Cl [Meclofenamate]"
  tested.system: "DAPK1 (Homo sapiens)"
  reported.result: 115.51
- compound: "CN1[C@@H]2CC[C@H]1C[C@@H](OC(=O)c1c[nH]c3ccccc13)C2"
  tested.system: "DAPK1 (Homo sapiens)"
  reported.result: 92.93
